System: A431
CONDITIONS: read-out: Inhibition of H^3 Thymidine uptake (IC50 in nM); A431 cells, 96 hours incubation
Documented IC50 across a set of molecules

# MOLECULE, UNIT TEXT, IC50
data = [
    ("CCC(C)C(CO)NC(=O)O[C@@H]1CC[C@@H](C[C@@H](C)[C@@H]2CC(=O)[C@H](C)/C=C(\\C)[C@@H](O)[C@@H](OC)C(=O)[C@H](C)C[C@H](C)/C=C/C=C/C=C(\\C)[C@@H](OC)C[C@@H]3CC[C@@H](C)[C@@](O)(O3)C(=O)C(=O)N3CCCC[C@H]3C(=O)O2)C[C@H]1OC (stereo partly shown)", "nM", 626),
    ("CO[C@H]1C[C@@H]2CC[C@@H](C)[C@@](O)(O2)C(=O)C(=O)N2CCCC[C@H]2C(=O)O[C@H]([C@H](C)C[C@@H]2CC[C@@H](OC(=O)NCC(O)CO)[C@H](OC)C2)CC(=O)[C@H](C)/C=C(\\C)[C@@H](O)[C@@H](OC)C(=O)[C@H](C)C[C@H](C)/C=C/C=C/C=C/1C (stereo partly shown)", "nM", 314),
    ("COC1CC2CCC(C)C(O)(O2)C(=O)C(=O)N2CCCCC2C(=O)OC(C(C)CC2CCC(OC(=O)NC(CO)CC(C)C)C(OC)C2)CC(=O)C(C)C=C(C)C(O)C(OC)C(=O)C(C)CC(C)C=CC=CC=C1C (stereo not shown) [Compound 7s]", "nM", 625),
    ("CO[C@H]1C[C@@H]2CC[C@@H](C)[C@@](O)(O2)C(=O)C(=O)N2CCCC[C@H]2C(=O)O[C@H]([C@H](C)C[C@@H]2CC[C@@H](OC(=O)NC(C)(CO)CO)[C@H](OC)C2)CC(=O)[C@H](C)/C=C(\\C)[C@@H](O)[C@@H](OC)C(=O)[C@H](C)C[C@H](C)/C=C/C=C/C=C/1C", "nM", 254),
    ("COC1CC2CCC(C)C(O)(O2)C(=O)C(=O)N2CCCCC2C(=O)OC(C(C)CC2CCC(OC(=O)NC(CO)CC(C)C)C(OC)C2)CC(=O)C(C)C=C(C)C(O)C(OC)C(=O)C(C)CC(C)C=CC=CC=C1C (stereo not shown) [Compound 7t]", "nM", 278),
    ("CO[C@H]1C[C@@H]2CC[C@@H](C)[C@@](O)(O2)C(=O)C(=O)N2CCCC[C@H]2C(=O)O[C@H]([C@H](C)C[C@@H]2CC[C@@H](OC(=O)NC(CO)(CO)CO)[C@H](OC)C2)CC(=O)[C@H](C)/C=C(\\C)[C@@H](O)[C@@H](OC)C(=O)[C@H](C)C[C@H](C)/C=C/C=C/C=C/1C", "nM", 282),
    ("CO[C@H]1C[C@@H]2CC[C@@H](C)[C@@](O)(O2)C(=O)C(=O)N2CCCC[C@H]2C(=O)O[C@H]([C@H](C)C[C@@H]2CC[C@@H](OC(=O)CCC(=O)N[C@H](CO)Cc3ccccc3)[C@H](OC)C2)CC(=O)[C@H](C)/C=C(\\C)[C@@H](O)[C@@H](OC)C(=O)[C@H](C)C[C@H](C)/C=C/C=C/C=C/1C", "nM", 1030),
]
